These measurements were taken from the supplement of paper PMC10567573.

What protein stability index was measured for each of the following?
B1: CCDC70 (parent)
chain: FSFKVSRWMGLACFRSLAASSPSI

variants of: B1; assay: protein stability index of a GFP-peptide fusion (GPS, HEK-293T) (PSI 1-6); higher = more stable; conditions: c terminus: a fixed tail appended;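 also: lentivirally expressed fusions sorted by FACS into six bins by GFP to DsRed ratio, PSI derived from sequencing read proportions per bin multiplied by bin number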
Give only the figure.

Enquiry: Quick one: protein stability index for P22T ?
Return: 3.71

Enquiry: Moving on to C13H
Return: 2.36

Enquiry: Moving on to F1K
Return: 2.46

Enquiry: Moving on to A18S
Return: 2.69

Enquiry: Moving on to G10P
Return: 4.98

Enquiry: Moving on to S20D
Return: 3.1

Enquiry: Moving on to M9K
Return: 2.21

Enquiry: Moving on to F1Y
Return: 2.33

Enquiry: Moving on to S20M
Return: 2.2

Enquiry: Moving on to C13D
Return: 2.05

Enquiry: Moving on to F3N
Return: 2.5

Enquiry: Moving on to S6Y
Return: 2.88

Enquiry: Moving on to S6K
Return: 2.24

Enquiry: Moving on to S20L
Return: 3.27

Enquiry: Moving on to S6V
Return: 4.41

Enquiry: Moving on to A19F
Return: 1.36
